Target: T1, Rat IL2Rγ extracellular domain expressed with a C-terminal myc-myc-hexahistidine tag (rat)
T1 construct: whole entry is the tagged construct; also called rIL-2Rg-MMH; rat IL-2Rg-MMH
T1 chain: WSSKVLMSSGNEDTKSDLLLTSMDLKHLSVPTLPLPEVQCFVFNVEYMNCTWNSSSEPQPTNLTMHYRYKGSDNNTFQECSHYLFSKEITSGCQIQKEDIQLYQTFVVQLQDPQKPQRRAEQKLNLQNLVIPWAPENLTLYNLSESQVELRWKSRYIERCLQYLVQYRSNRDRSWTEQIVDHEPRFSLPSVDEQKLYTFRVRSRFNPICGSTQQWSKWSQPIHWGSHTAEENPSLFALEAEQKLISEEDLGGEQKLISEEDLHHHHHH
Experiment: SPR Biacore 4000, anti-hFc-captured mAb, 37 C
Listing of entries alongside the reported 100 nM Ag Bound.
Numeric only. Scale: RU

Worked set:
Fill in the blank: the reported 100 nM Ag Bound of H4H12874P (antibody, human IgG4 S228P, kappa, V domains shown, fully human anti-IL2Rgamma mAb, human IgG4 Fc) VH: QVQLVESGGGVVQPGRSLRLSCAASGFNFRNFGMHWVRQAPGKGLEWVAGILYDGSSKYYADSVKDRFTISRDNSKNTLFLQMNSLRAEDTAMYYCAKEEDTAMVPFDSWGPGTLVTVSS VL: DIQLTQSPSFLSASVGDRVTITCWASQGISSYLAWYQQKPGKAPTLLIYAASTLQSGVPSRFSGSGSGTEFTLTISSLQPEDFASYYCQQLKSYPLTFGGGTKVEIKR is ____. 3

Fill in the blank: the reported 100 nM Ag Bound of H4H12884P (antibody, human IgG4 S228P, kappa, V domains shown, fully human anti-IL2Rgamma mAb, human IgG4 Fc) VH: QVQLQESGPGLVKPSQTLSLTCTVSGGSISSGGYYWSWIRQHPGKGLEWIGFIYYSGKTYYNPSLKSRLTISVDTSKSQFSLKLRSVTAADTAVYYCARLGYTNSAGWFDPWGQGTLVTVSS VL: DIQMTQSPSSLSASVGDRVTITCRASQSISSYLNWYQQKPGKAPNLLIYAASSLQSGVPSRFSGSGSGTDFTLTISSLQPEDLATYYCQQSYTTPFTFGPGTKVDIKR is ____. 4

Fill in the blank: the reported 100 nM Ag Bound of H4H12890P (antibody, human IgG4 S228P, kappa, V domains shown, fully human anti-IL2Rgamma mAb, human IgG4 Fc) VH: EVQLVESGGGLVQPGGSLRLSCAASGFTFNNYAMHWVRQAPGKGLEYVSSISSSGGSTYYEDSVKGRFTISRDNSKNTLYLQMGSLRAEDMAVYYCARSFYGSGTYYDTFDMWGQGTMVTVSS VL: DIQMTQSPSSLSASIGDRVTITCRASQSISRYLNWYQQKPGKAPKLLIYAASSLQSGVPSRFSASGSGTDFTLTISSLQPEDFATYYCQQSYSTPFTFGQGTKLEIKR is ____. 0

Next:
Fill in the blank: the reported 100 nM Ag Bound of H4H12863P (antibody, human IgG4 S228P, kappa, V domains shown, fully human anti-IL2Rgamma mAb, human IgG4 Fc) VH: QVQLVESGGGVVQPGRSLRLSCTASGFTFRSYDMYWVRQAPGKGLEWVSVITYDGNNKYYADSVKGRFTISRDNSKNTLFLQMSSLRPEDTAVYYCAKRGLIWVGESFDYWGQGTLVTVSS VL: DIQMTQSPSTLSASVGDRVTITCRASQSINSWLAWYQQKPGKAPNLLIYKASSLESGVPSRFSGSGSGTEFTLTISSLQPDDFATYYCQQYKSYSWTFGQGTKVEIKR is ____. 0

Fill in the blank: the reported 100 nM Ag Bound of H4H12871P (antibody, human IgG4 S228P, kappa, V domains shown, fully human anti-IL2Rgamma mAb, human IgG4 Fc; also called REGN9434) VH: QVQLQESGPGLVKPSQTLSLTCTVSGGSITSGGYYWSWIRQYPGQGLEWIGYIYYSGKTYYNPSFTSRITISVDTSKKQFSLKMSSVTAADTAVYYCARAGFTSSNGWFDPWGQGTLVTVSS VL: DIQMTQSPSSLSASVGDRVTITCRASQNIRSYLNWYQQKPGKAPKLLIYSASSLQSGVPSRFSGSGSGTDFTLTISSLQPEDFPTYYCQQTYSSPWTFGPGTKVEIKR is ____. 1
